Listed sequences paired with reported apparent Kd
Test system: MS2 coat protein
Test: apparent Kd, MS2 coat protein; higher = weaker binding; RNA-MaP array; FMN 200 µM where present
Details: designed as: ON switch for flavin mononucleotide; no ligand
Measured attribute: apparent Kd (nM)

{"columns": ["Primary sequence", "Units label", "Recorded value"],
 "data": [
  ["UAUUGAUAAUAUUUUCACAUGAGGAUCACCCAUGUCGCUCGACAGGAUAUAUUUUAUUUGUUUAAGUAGAAGGGUCGCAGAUUU", "nM", 143],
  ["AAUAACGGAGCUACAUGAGGAUCACCCAUGUACGGGUGAUCCUAGGAUAUGCCCGCAACUAUGUCGCAGAAGGAGGGUUGCCCA", "nM", 20.4],
  ["UUACUCAUGUAAGGAUAUGCAGCCGUUUCGGCUGCAGAAGGUACUAUACUACAUGAGGAUCACCCAUGUCUAUAAAAUAAAGAC", "nM", 123],
  ["GUGCACAUUCGAGGAUAUCGGAGAGAGAUCCUUCGAGAAGGCGAUUCAUGAUGUAUUAUCCUGGACAUGAGGAUCACCCAUGUG", "nM", 579]
]}

###

System: MS2 coat protein
Assay: apparent Kd, MS2 coat protein; higher = weaker binding; RNA-MaP array; FMN 200 µM where present
Conditions: ligand present: flavin mononucleotide; designed as: OFF switch for flavin mononucleotide
Measured attribute: apparent Kd (nM)

{"columns": ["Primary sequence", "Assayed system", "Recorded value"],
 "data": [
  ["UAAUUUUGUCAAGGAUAUGUAAUAUAGAUUUGAAAACAUGAGGAUCACCCAUGUAUAUGGUGGGAACAGAAGGUGAAUGGAGAA", "MS2 coat protein", 242],
  ["CGCCCGGGAGGAUAUCCAAUAUAUGACAUGAGGAUCACCCAUGUUUCCACUCGUACCUCCGGAGAAGGCCCGGCGC", "MS2 coat protein", 22.4],
  ["GUCAGCUCGUGAGGAUAUACAUGUGCUGGAGACAGCACUAUUGAGUUCACAUGAGGAUCACCCAUGUAGAAGGCACGAGCUGAU", "MS2 coat protein", 27.4],
  ["GGAUUACAUGAGGAUCACCCAUGUGAGGAUAUCGAUGUCCUGUCUUUCGUGCGGGACUCGAGAAGGCACUUGGA", "MS2 coat protein", 141],
  ["GUAUAUAGUGUGAGGAUAUGCUGGUCCUUGGAUCAGCAGAAGGCACAUGAGGAUCACCCAUGUAGUUAAAUAUA", "MS2 coat protein", 82],
  ["GCACUGGAUGUAGGAUAUCAGGACGAUAAGUCCUGAGAAGGACAUGAGGAUCACCCAUGUCCUAAAACCAGUGCAUAUAAUAUA", "MS2 coat protein", 16.7],
  ["GUACUGUAGUGAGGAUAUACGAGAACGAUAGUUCGGCGAUCCAAUUAUACAUGAGGAUCACCCAUGUAGAAGGCACUUCAGUAC", "MS2 coat protein", 30.6]
]}

###

Listed sequences paired with reported apparent Kd
System: MS2 coat protein
Experiment: apparent Kd, MS2 coat protein; higher = weaker binding; RNA-MaP array
Settings: ligand present: flavin mononucleotide; designed as: OFF switch for flavin mononucleotide

{"columns": ["Primary sequence", "apparent Kd, nM"],
 "data": [
  ["ACGAGCACCUCAGGAUAUGGAAAGGACUCUUCAUUGGCUACUCGAACAUGAGGAUCACCCAUGUUCCAGAAGGGAGGAGAAGCC", 11.6],
  ["GAUUACGGUCUAGGAUAUUGAUUGGCACAUGAGGAUCACCCAUGUCUGUGAGAUCAGCAUACAAGCAAGAAGGAGAUGCGGUCU", 10.9],
  ["GGUCCCGUAGGAUAUUGCUCAUUGUACAUGAGGAUCACCCAUGUGACUACACUGCACUGGCAAGAAGGACGUUGAU", 50.2],
  ["GAGCACUUAGGAUAUUGGUUGACACACAUGAGGAUCACCCAUGUGAUUCCUGCCUUUAACCAAGAAGGAAGAGUAU", 13.5],
  ["AUUAAUUCAGGAUAUACAUGAGGAUCACCCAUGUGGCGAAAGAACAUAUAGGAAACAAGUAGAAGGGAAUAGAU", 16.4],
  ["CUCUGCUACCGGACUGGUUGGACAUGAGGAUCACCCAUGUACGAGGAUAUACGAAGAAGAACCAGGUAGAAGGCGUUUGGGUAC", 28.1],
  ["AGUUCUGGAGGAUAUACAUCCUCAAUGUCCAACCUGCGGAUACAUGAGGAUCACCCAUGUAGAAGGCCACACAA", 9.75]
]}
